# assay_procedure: in vitro
# Format: in vitro ADME
# run_parameters: rat, plasma, pH 7.4
Where a name gives a salt, the structure may show the parent alone.
reported_property: fraction unbound at 4 h

Output fraction unbound at 4 h of CN[C@@H]1[C@H](O)[C@H](NC)C2O[C@]3(O)C(OC2[C@H]1O)O[C@H](C)C[C@H]3NC(=O)Cc1ccccn1 (stereo partly shown) [Compound 1329, Dihydrochloride]
~0.7

====

These compounds were tested on Strenotrophomonas maltophilia ATCC 13637; MIC is the recorded read-out.
Structures can show the parent of a compound that is named as a salt.

Consider the following illustrative entries.
CN[C@@H]1[C@H](O)[C@H](NC)C2O[C@]3(O)C(OC2[C@H]1O)O[C@H](C)C[C@H]3NC(=O)Cc1ccc(-c2ccc(Cl)cc2)cn1 (stereo partly shown) [Compound 1535, trihydrobromide] | > 200 µg/mL
CN[C@@H]1[C@H](O)[C@H](NC)C2O[C@]3(O)C(OC2[C@H]1O)O[C@H](C)C[C@H]3NC(=O)[C@@H](C)N (stereo partly shown) [Compound 1501, Trihydrochloride] | > 200 µg/mL

Attention now shifts to the item below.
Output MIC of CN[C@@H]1[C@H](O)[C@H](NC)C2O[C@]3(O)C(OC2[C@H]1O)O[C@H](C)C[C@H]3NC(=O)Cc1ccncc1 (stereo partly shown) [Compound 1413, Dihydrochloride]
> 200 µg/mL

Hello, the source for this data is patent US9284325B2, in case you need it.
